- measurementNotes: Herbicide comparative solubility: saflufenacil dissolved in each solvent
- Type: physicochemical
- conditionSet: room temperature; vials of 20, 30, 40 and 50 wt. % saflufenacil
experimentalReadout: maximum weight percentage of saflufenacil dissolved in each solvent

query: Would you kindly share the measured maximum weight percentage of saflufenacil dissolved in each solvent for CN1CCCC1=O ?
result: 50%

query: So what's the measured maximum weight percentage of saflufenacil dissolved in each solvent for this one? CCCCN1CCCCCC1=O
result: 20%

query: What value of maximum weight percentage of saflufenacil dissolved in each solvent has been reported for the following molecule? O=C1CCCCC1
result: <20%

query: Item under review: N#CCCN1CCCCCC1=O . Reported maximum weight percentage of saflufenacil dissolved in each solvent?
result: <20%

query: For the molecule shown here, CCCCN1CCCC1=O , give the reported maximum weight percentage of saflufenacil dissolved in each solvent.
result: 30%

query: // maximum weight percentage of saflufenacil dissolved in each solvent lookup, key: CCCCCCCCCC(=O)N(C)C
result: 30%

query: Find the recorded maximum weight percentage of saflufenacil dissolved in each solvent belonging to CN1CCCCCC1=O and report it.
result: 40%

query: Entry under review: CCN1CCCCCC1=O . Reported maximum weight percentage of saflufenacil dissolved in each solvent?
result: 30%

====

- measurementNotes: Insecticide comparative solubility: bifenthrin dissolved in each solvent
- Assay type: physicochemical
- conditionSet: room temperature; vials of 20, 30, 40 and 50 wt. % bifenthrin
experimentalReadout: maximum weight percentage of bifenthrin dissolved in each solvent (%)
Give the number; % is assumed, so skip it.

| molSmiles | unit | observedResult |
| --- | --- | --- |
| CCCCN1CCCC1=O | % | 50 |
| O=C1CCCCC1 | % | 50 |
| CN1CCCCCC1=O | % | 40 |
| CCCCCCCCCC(=O)N(C)C | % | 30 |
| CCCCN1CCCCCC1=O | % | 40 |
| CN1CCCC1=O | % | 50 |

Attention now shifts to the item below.
query: What value of maximum weight percentage of bifenthrin dissolved in each solvent has been recorded for this entry: CCN1CCCCCC1=O
result: 50
